Assay: self-splicing fitness, log relative to wild type (ln ratio); higher = more splicing; Tetrahymena group I intron in knt gene, E. coli kanamycin selection, DiMSum; sequences stand for … in CUCUCU…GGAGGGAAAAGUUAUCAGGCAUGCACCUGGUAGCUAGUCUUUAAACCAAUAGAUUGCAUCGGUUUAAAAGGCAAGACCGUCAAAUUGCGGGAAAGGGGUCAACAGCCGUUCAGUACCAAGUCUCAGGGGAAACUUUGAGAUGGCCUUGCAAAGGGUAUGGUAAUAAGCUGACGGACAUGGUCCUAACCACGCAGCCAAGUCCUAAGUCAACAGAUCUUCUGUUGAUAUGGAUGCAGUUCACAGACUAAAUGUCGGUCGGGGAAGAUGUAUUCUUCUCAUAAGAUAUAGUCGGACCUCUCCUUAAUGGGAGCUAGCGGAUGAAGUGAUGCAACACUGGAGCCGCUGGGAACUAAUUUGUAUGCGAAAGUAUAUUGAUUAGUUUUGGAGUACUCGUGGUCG;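 note: selection with 25 µg/mL kanamycin versus none on LB agar overnight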
Conditions: 30 °C
Recorded self-splicing fitness (ln), one value per entry.

{"sequence record": "GUAGAGCAAUAUUACGUCUU", "self-splicing fitness (ln)": -0.122}
{"sequence record": "CGCUAGCAAUAUUACGACCA", "self-splicing fitness (ln)": -1.86}
{"sequence record": "GCAUAGCAAUAUUACGAUUC", "self-splicing fitness (ln)": -0.8}
{"sequence record": "AUGCAGCAAUAUUACGGAUA", "self-splicing fitness (ln)": -2.99}
{"sequence record": "GUAGAGCAAUAUUACGUCUG", "self-splicing fitness (ln)": -1.6}
{"sequence record": "GACGAGCAAUAUUACGUAGC", "self-splicing fitness (ln)": -4.54}
{"sequence record": "UUCGAGCAAUAUUACGUUAA", "self-splicing fitness (ln)": -2.16}
{"sequence record": "ACACAGCAAUAUUACGGGUU", "self-splicing fitness (ln)": -2.86}
{"sequence record": "GCUUAGCAAUAUUACGACCC", "self-splicing fitness (ln)": -0.525}
{"sequence record": "AAGCAGCAAUAUUACGGUUC", "self-splicing fitness (ln)": -2.24}
{"sequence record": "CUCCAGCAAUAUUACGCAGU", "self-splicing fitness (ln)": -3.59}
{"sequence record": "UAAAAGCAAUAUUACGAGAG", "self-splicing fitness (ln)": -3.35}
{"sequence record": "GCAUAGCAAUAUUACGGUAC", "self-splicing fitness (ln)": -2.07}
{"sequence record": "UGUAAGCAAUAUUACGUAGU", "self-splicing fitness (ln)": -3.01}
{"sequence record": "GAUCAGCAAUAUUACGAACA", "self-splicing fitness (ln)": 0.0135}
{"sequence record": "AAGCAGCAAUAUUACGCUCU", "self-splicing fitness (ln)": -1.55}
{"sequence record": "CCUAAGCAAUAUUACGUAUA", "self-splicing fitness (ln)": -3}
{"sequence record": "GAAGAGCAAUAUUACGAAAU", "self-splicing fitness (ln)": -3.79}
{"sequence record": "UUAGAGCAAUAUUACGCUUA", "self-splicing fitness (ln)": -0.675}
{"sequence record": "UCCAAGCAAUAUUACGGCUG", "self-splicing fitness (ln)": -2.69}
{"sequence record": "GACUAGCAAUAUUACGCAAA", "self-splicing fitness (ln)": -1.49}
{"sequence record": "UCACAGCAAUAUUACGAGUU", "self-splicing fitness (ln)": -3.54}
{"sequence record": "GGCCAGCAAUAUUACGCAGU", "self-splicing fitness (ln)": -1.37}
{"sequence record": "GACCAGCAAUAUUACGUACU", "self-splicing fitness (ln)": -0.709}
{"sequence record": "UUUAAGCAAUAUUACGAUCU", "self-splicing fitness (ln)": -1.05}
{"sequence record": "GUACAGCAAUAUUACGCGAC", "self-splicing fitness (ln)": -4.09}
{"sequence record": "AUGCAGCAAUAUUACGGAGA", "self-splicing fitness (ln)": -4.25}
{"sequence record": "GCAGAGCAAUAUUACGACAU", "self-splicing fitness (ln)": -3.17}
{"sequence record": "CCCUAGCAAUAUUACGGAAU", "self-splicing fitness (ln)": -3.36}
{"sequence record": "GUGCAGCAAUAUUACGCCAU", "self-splicing fitness (ln)": -2.23}
{"sequence record": "CUAGAGCAAUAUUACGAUGC", "self-splicing fitness (ln)": -2.31}
{"sequence record": "UAUAAGCAAUAUUACGGCUC", "self-splicing fitness (ln)": -1.1}
{"sequence record": "GUUAAGCAAUAUUACGUAAU", "self-splicing fitness (ln)": -2.09}
{"sequence record": "AGCUAGCAAUAUUACGUAAU", "self-splicing fitness (ln)": -3.29}
{"sequence record": "GAUCAGCAAUAUUACGUCAU", "self-splicing fitness (ln)": -1.53}
{"sequence record": "UUCCAGCAAUAUUACGUUUC", "self-splicing fitness (ln)": -3.24}
{"sequence record": "CACCAGCAAUAUUACGAGGC", "self-splicing fitness (ln)": -2.98}
{"sequence record": "AGAGAGCAAUAUUACGUAAA", "self-splicing fitness (ln)": -3.76}
{"sequence record": "AGGCAGCAAUAUUACGAGAU", "self-splicing fitness (ln)": -3.01}
{"sequence record": "AACUAGCAAUAUUACGGACC", "self-splicing fitness (ln)": -0.676}
{"sequence record": "UUUUAGCAAUAUUACGAGUA", "self-splicing fitness (ln)": -1.55}
{"sequence record": "CUGUAGCAAUAUUACGUUAU", "self-splicing fitness (ln)": -3.21}
{"sequence record": "UGGGAGCAAUAUUACGGUGG", "self-splicing fitness (ln)": -2.67}
{"sequence record": "AAGAAGCAAUAUUACGCGUC", "self-splicing fitness (ln)": -2.48}
{"sequence record": "CUCUAGCAAUAUUACGGUUU", "self-splicing fitness (ln)": -3.04}
{"sequence record": "GCUUAGCAAUAUUACGGCUU", "self-splicing fitness (ln)": -0.91}
{"sequence record": "ACGAAGCAAUAUUACGGCUC", "self-splicing fitness (ln)": -3.05}
{"sequence record": "GCGCAGCAAUAUUACGACAG", "self-splicing fitness (ln)": -3.49}
{"sequence record": "UAGCAGCAAUAUUACGCAUU", "self-splicing fitness (ln)": -2.38}
{"sequence record": "GUUGAGCAAUAUUACGAGGU", "self-splicing fitness (ln)": -3.2}
{"sequence record": "UGUUAGCAAUAUUACGGCUG", "self-splicing fitness (ln)": 0.0825}
{"sequence record": "GAUAAGCAAUAUUACGAAGU", "self-splicing fitness (ln)": -2.4}
{"sequence record": "AUACAGCAAUAUUACGCGAG", "self-splicing fitness (ln)": -2.35}
{"sequence record": "GGGAAGCAAUAUUACGUUGA", "self-splicing fitness (ln)": -3.37}
{"sequence record": "GGCUAGCAAUAUUACGGUAU", "self-splicing fitness (ln)": -0.65}
{"sequence record": "CCGAAGCAAUAUUACGGUAA", "self-splicing fitness (ln)": -1.62}
{"sequence record": "GCUCAGCAAUAUUACGAAAU", "self-splicing fitness (ln)": -1.13}
{"sequence record": "GAGCAGCAAUAUUACGCAAG", "self-splicing fitness (ln)": -1.36}
{"sequence record": "ACACAGCAAUAUUACGCUGU", "self-splicing fitness (ln)": -3.38}
{"sequence record": "CGCAAGCAAUAUUACGAUUG", "self-splicing fitness (ln)": -2.21}
{"sequence record": "UUCGAGCAAUAUUACGACGU", "self-splicing fitness (ln)": -3.55}
{"sequence record": "CCUAAGCAAUAUUACGCGAA", "self-splicing fitness (ln)": -2.23}
{"sequence record": "CGCUAGCAAUAUUACGGUUA", "self-splicing fitness (ln)": -2.22}
{"sequence record": "GGCGAGCAAUAUUACGACUU", "self-splicing fitness (ln)": 0.166}
{"sequence record": "UGCUAGCAAUAUUACGAUUA", "self-splicing fitness (ln)": -0.493}
{"sequence record": "ACUGAGCAAUAUUACGAACG", "self-splicing fitness (ln)": -2.48}
{"sequence record": "GUUAAGCAAUAUUACGUACG", "self-splicing fitness (ln)": -1.83}
